For each of the compounds below, state its Percent Effect.
Biological target: Proteasome subunit beta (Trypanosoma cruzi)
Experiment: Trypanosoma cruzi proteasome chymotrypsin-like activity (TcProtChymo) assay.
Type: functional
Set-up: scale not given: in the data most compounds retested in dose-response had high values
Conditions: 9.37 µM
Your answer should be a plain number; it is taken to be in %.

// query Identify measured Percent Effect associated with O=C(CN(Cc1cccnc1)CC1CCCO1)Nc1ccc(F)cc1 (configuration not stated)
// result 10.3

// query Identify measured Percent Effect associated with CC(=O)Nc1nc(C(=O)Nc2ccc(F)cc2)cs1
// result 16.7

// query Identify measured Percent Effect associated with COc1cccc(C(=O)N2CCCCC2CNC(N)=O)c1 (configuration not stated)
// result 0.0846

// query Identify measured Percent Effect associated with O=C(Nc1ccc(CCN2CCC(O)CC2)cc1)Nc1cccnc1
// result 18.4

// query Identify measured Percent Effect associated with CN(C)[C@@H]1CN(Cc2ccco2)C[C@@H]2CCCO[C@@H]21
// result 9.27

// query Identify measured Percent Effect associated with CC1CCN(c2ncc3c(n2)CN(c2ccccc2)C3=O)CC1
// result -5.82

// query Identify measured Percent Effect associated with Cn1ccc2ccc(C(=O)N3CCN(C(=O)N4CCOCC4)CC3)cc21
// result 13.2

// query Identify measured Percent Effect associated with Cc1ccoc1C(=O)N1CC[C@H]2O[C@@H](C)C[C@H]2C1
// result 9.06

// query Identify measured Percent Effect associated with CN(Cc1cn2ccccc2c1C#N)C1CCCN(c2cccnn2)C1 (configuration not stated)
// result 13.7

// query Identify measured Percent Effect associated with COCc1nc(CNC2CCSCC2)no1
// result 7.36

// query Identify measured Percent Effect associated with CCOC(=O)N1CCN(C(=O)c2ccc3ccn(C)c3c2)CC1
// result 11.6

// query Identify measured Percent Effect associated with Cc1nsc(C(=O)N2CCc3ccccc3C2)n1
// result 5.22

====

Molecular target: Arginase-2, mitochondrial (Homo sapiens) (UniProt P78540)
Sequence (P78540 whole entry): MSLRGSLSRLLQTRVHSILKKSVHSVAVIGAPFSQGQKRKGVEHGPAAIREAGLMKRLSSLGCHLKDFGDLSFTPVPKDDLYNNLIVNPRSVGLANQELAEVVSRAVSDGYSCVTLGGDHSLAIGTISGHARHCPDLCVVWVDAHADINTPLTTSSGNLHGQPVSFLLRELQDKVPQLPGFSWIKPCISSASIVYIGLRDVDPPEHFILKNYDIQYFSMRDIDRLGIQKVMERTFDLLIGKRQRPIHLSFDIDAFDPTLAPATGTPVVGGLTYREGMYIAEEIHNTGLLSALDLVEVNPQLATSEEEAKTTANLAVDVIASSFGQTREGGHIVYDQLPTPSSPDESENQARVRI
Test: in vitro enzyme assay to detect the production of urea directly proportional to the activity of Arginase II
Format: functional
Parameters: scale not given: in the data most compounds retested in dose-response had high values
Settings: 33.3 µM
For each of the compounds below, state its Percent Effect.
Your answer should be a plain number; it is taken to be in %.

// query Print Arginase-2, mitochondrial (Homo sapiens) (UniProt P78540) Percent Effect for Nc1cc(CCC2CN(Cc3ccc(C(=O)O)cc3)CCO2)ccn1 (stereo unspecified) .
// result -1.77

// query Print Arginase-2, mitochondrial (Homo sapiens) (UniProt P78540) Percent Effect for CC(NCC1=Cc2cc(Cl)ccc2OC1)c1nnc2n1CCCC2 (stereo unspecified) .
// result 1.67

// query Print Arginase-2, mitochondrial (Homo sapiens) (UniProt P78540) Percent Effect for CCn1cc(CNC2CC(=O)N(CCc3cccc(Cl)c3)C2)cn1 (stereo unspecified) .
// result -3.99

// query Print Arginase-2, mitochondrial (Homo sapiens) (UniProt P78540) Percent Effect for CCc1nc(C2CCCN(C(=O)c3ccc4c(c3)nnn4C)C2)no1 (stereo unspecified) .
// result -4.42

// query Print Arginase-2, mitochondrial (Homo sapiens) (UniProt P78540) Percent Effect for CC(C)CN1CCN(C)C2(CCN(Cc3ccsc3)CC2)C1=O .
// result 1.83

// query Print Arginase-2, mitochondrial (Homo sapiens) (UniProt P78540) Percent Effect for O=C1NC2(CCN(Cc3nccs3)CC2)CC1c1ccncc1 (stereo unspecified) .
// result -6.07

// query Print Arginase-2, mitochondrial (Homo sapiens) (UniProt P78540) Percent Effect for O=C(NCC(=O)N1CCc2ccccc2C1)c1ccoc1 .
// result 1.43

// query Print Arginase-2, mitochondrial (Homo sapiens) (UniProt P78540) Percent Effect for Cc1ccccc1N1CC2(CCN(S(=O)(=O)c3cccs3)C2)CC1=O (stereo unspecified) .
// result -15.5

// query Print Arginase-2, mitochondrial (Homo sapiens) (UniProt P78540) Percent Effect for Cc1noc(C2CCCN(C(=O)c3ccc(Br)cc3F)C2)n1 (stereo unspecified) .
// result 2.74

// query Print Arginase-2, mitochondrial (Homo sapiens) (UniProt P78540) Percent Effect for Cc1cc(C2CCCN2CCCS(=O)(=O)c2ccccc2)no1 (stereo unspecified) .
// result -1.23

// query Print Arginase-2, mitochondrial (Homo sapiens) (UniProt P78540) Percent Effect for Cc1cc(CN(C)C(=O)NCc2cccc(N3CCCC3=O)c2)no1 .
// result -4.94
